For each entry below, report its growth inhibition value.
Assay: antimalarial activity against Dd2 strain (AID 2302);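 also: 0% = DMSO untreated growth and 100% = chloroquine plus artemisinin killed control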
Conditions: P. falciparum Dd2 in RBCs, LDH growth readout, 72 h; at 2 µM; hits give high values
Activity calls are given as the source filed them.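 The calls were made as follows: active = growth inhibition above 50% at the single 2 µM test dose, taken to imply half-maximal potency below 2 µM; inactive = the rest.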

Reported growth inhibition ( O=C(/C=C/c1ccc(Cl)c(Cl)c1)NCCCCCN1CCCN(C(=O)Nc2ccc(Cl)c(C(F)(F)F)c2)CC1 ) = 16% (inactive)

Reported growth inhibition ( Fc1ccc(-c2cncc(Nc3ccncc3)n2)cc1 ) = 11% (inactive)

Reported growth inhibition ( Cc1csc(NC(=O)c2cn(-c3ccccc3)nc2-c2cccs2)n1 ) = 12% (inactive)

Reported growth inhibition ( CC(=O)Nc1ccc(S(=O)(=O)Nc2ccc(Nc3nc(C)cc(N(C)C)n3)cc2)cc1 ) = 22% (inactive)

Reported growth inhibition ( COc1ccc2c(c1)CC(C)(C)NC2CCCCCCCCC1NC(C)(C)Cc2cc(OC)ccc21 (centres undefined) ) = 62% (active)

Reported growth inhibition ( CC1=C(C(=O)OC(C)C)C(c2ccccc2Cl)C2=C(CC(c3ccccc3)CC2=O)N1 (centres undefined) ) = 84% (active)

Reported growth inhibition ( Cc1noc(C)c1-c1cccc(CNCc2cccc(-c3ccc(-c4nc5c(C)cccc5[nH]4)cc3)c2)c1 ) = 69% (active)

Reported growth inhibition ( Cc1cc(OCCCN=C(N)c2ccc3ccccc3c2)c(C(C)C)cc1Cl ) = 10% (inactive)

Reported growth inhibition ( COc1ccccc1-c1cccc(CNC2CCN(CC3Cn4c(=O)ccc5ccc(F)c3c54)CC2)c1 (centres undefined) ) = -1% (inactive)

Reported growth inhibition ( CCc1cn(CCS(C)(=O)=O)c2ccc(C(=O)N[C@@H](Cc3ccccc3)[C@H](O)CNC(C)(C)CCCC(C)C)cc12 ) = 96% (active)

Reported growth inhibition ( COC(=O)c1cccc(CNCc2cccc(-c3ccc(-c4nc5ccc(C(F)(F)F)cc5[nH]4)cc3)c2)c1 ) = 83% (active)

Reported growth inhibition ( C=CCc1cc(C2CCN(CCCCNC(=O)c3ccc(-c4ccc(C#N)cc4)cc3)CC2)c(OCC(N)=O)c2c1CCCC2 ) = 92% (active)

Reported growth inhibition ( COc1cc(C)nc2ccc(NC(=O)c3cc(C(F)(F)F)cc(C(F)(F)F)c3)cc12 ) = 99% (active)

Reported growth inhibition ( COc1ccc2nccc([C@@H](O)CN3CCC(NCc4nc5ccc(F)cc5[nH]4)CC3)c2c1 ) = 4% (inactive)

Reported growth inhibition ( O=C(NCCCN1CCOCC1)c1ccc(-c2cccc(NC(=O)c3ccc(Cl)c(Cl)c3)c2)cc1 ) = 68% (active)

Reported growth inhibition ( Cc1ccc2c(NN=Cc3ccc(N(C)C)cc3)cc(C)nc2c1 ) = 46% (inactive)

Reported growth inhibition ( CCOc1cc(Br)c(C(C)NC(=O)c2cccc(OC)c2)cc1OCC (centres undefined) ) = 37% (inactive)

Reported growth inhibition ( Cc1cc(C(=O)Nc2ccc(OCc3ccccc3)cc2)on1 ) = 89% (active)

Reported growth inhibition ( COc1cc(C(=O)N2[C@@H](c3nccs3)[C@@H](C(=O)N(OC)C(C)c3ccccc3)C[C@@]2(CC(C)C)C(=O)OC(C)(C)C)ccc1C(C)(C)C (some centres undefined) ) = 92% (active)

* * *

Target: Calcium-dependent protein kinase 1 (Plasmodium falciparum (isolate 3D7))
Assay: PfCDPK1 kinase inhibitors, biochemical, TCAMS library (AID 1159585);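 also: inhibitors leave more ATP so luminescence rises with inhibition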
Settings: recombinant PfCDPK1, Kinase-Glo ATP depletion luminescence
Measured potencies and affinities stand elsewhere. Active and inactive are the calls of the source. No cut-off is given here; in the data, nearly all actives have IC50 up to about 0.98 µM.
Assay Metric: outcome

{"Compound": "CC1=C(C(=O)OC(C)C)C(c2ccccc2Cl)C2=C(CC(c3ccccc3)CC2=O)N1 (stereo not given)", "Readout Value": "inactive"}
{"Compound": "Cc1cccc(/C=C/C(=O)NC2CCC(N3CCC(c4ccccc4C)CC3)CC2)c1 (stereo not given)", "Readout Value": "inactive"}
{"Compound": "CN(CCON1C(N)=NC(N)=NC1(C)C)c1ccccc1", "Readout Value": "inactive"}
{"Compound": "O=C(Nc1ccc(Oc2ccccc2)cc1)N(Cc1ccc(-c2ccc(CN3CCNCC3)cc2)cc1)C1CCN(Cc2ccccc2)CC1", "Readout Value": "inactive"}

Here CNC(=O)c1cc(Nc2nnc(-c3ccc(C)c(S(=O)(=O)NC4CCCCC4)c3)c3ccccc23)ccc1OC was tested on Calcium-dependent protein kinase 1 (Plasmodium falciparum (isolate 3D7)), and its outcome came to inactive

* * *

For each entry below, report its inhibition value.
Test: HepG2 cytotoxicity, primary screen, cytotoxicity control for P. falciparum antimalarial project, cell-based, ATP luminescence (AID 2303);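 also: 0% = DMSO wells and 100% = digitonin-killed cells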
Settings: HepG2 viability, 24-48 h, at 10 µM, hits give high values
Quick reminder: number only, in %, skip the unit.

Reported inhibition ( NC(=NCc1ccc(Cl)c(Cl)c1)NC(=NCCCCCCN=C(NC(N)=NCc1ccc(Cl)c(Cl)c1)N1CCCCC1)N1CCCCC1 ) = 6

Reported inhibition ( O=C(NCCCCN1CCC(c2cccc3ccccc23)CC1)c1ccc(NC(=O)c2ccc(Cl)cc2)cc1 ) = 20

Reported inhibition ( CC(C)Oc1cc(-c2ccc(S(C)(=O)=O)cc2)nc(N(Cc2cccc(F)c2F)Cc2cccc(F)c2F)n1 ) = 10

Reported inhibition ( CS(=O)(=O)NCCCNCc1ccc(-c2ccc(-c3nc4ccc(C(F)(F)F)cc4[nH]3)s2)cc1 ) = 21

* * *

Target: Calcium-dependent protein kinase 4 (Plasmodium falciparum (isolate 3D7)) (UniProt Q8IBS5)
Sequence (Q8IBS5 whole entry, looked up): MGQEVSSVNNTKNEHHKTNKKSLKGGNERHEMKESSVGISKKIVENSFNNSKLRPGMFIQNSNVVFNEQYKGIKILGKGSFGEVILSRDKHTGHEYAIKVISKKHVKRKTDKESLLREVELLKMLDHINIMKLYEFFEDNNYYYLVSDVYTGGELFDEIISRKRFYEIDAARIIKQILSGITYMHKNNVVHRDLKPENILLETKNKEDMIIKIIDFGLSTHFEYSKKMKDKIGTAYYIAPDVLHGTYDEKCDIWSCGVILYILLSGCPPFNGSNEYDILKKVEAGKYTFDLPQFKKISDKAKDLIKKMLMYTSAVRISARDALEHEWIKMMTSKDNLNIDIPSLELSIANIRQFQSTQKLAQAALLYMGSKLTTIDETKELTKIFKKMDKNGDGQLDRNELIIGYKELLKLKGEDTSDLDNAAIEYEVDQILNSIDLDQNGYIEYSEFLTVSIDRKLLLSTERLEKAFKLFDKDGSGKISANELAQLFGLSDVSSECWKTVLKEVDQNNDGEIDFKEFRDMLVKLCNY
Experiment: PfCDPK4 kinase inhibitors, biochemical, TCAMS library (AID 1159588)
Conditions: recombinant PfCDPK4, Kinase-Glo ATP depletion luminescence
Measured potencies and affinities stand elsewhere. Activity calls are given as the source filed them. No cut-off is given here; in the data, nearly all actives have IC50 up to about 0.91 µM.
Assay Metric: outcome

Previously resolved entries follow.
{"Compound": "O=S(=O)(NCCN1CCCC1)c1ccc(-c2ccccc2CNC2Cc3ccccc3C2)cc1", "Assay System": "Calcium-dependent protein kinase 4 (Plasmodium falciparum (isolate 3D7)) (UniProt Q8IBS5)", "outcome": "inactive"}
{"Compound": "C[C@@H]1CN(c2cnn(Cc3ccc(NC(=O)Nc4cccc(C(F)(F)F)c4)cc3)c(=O)c2Cl)C[C@H](C)N1", "Assay System": "Calcium-dependent protein kinase 4 (Plasmodium falciparum (isolate 3D7)) (UniProt Q8IBS5)", "outcome": "inactive"}
{"Compound": "Cc1cc(C)c(NC(=O)N2CCCN(CCCCCNC(=O)/C=C/c3ccc(Cl)c(Cl)c3)CC2)c(C)c1", "Assay System": "Calcium-dependent protein kinase 4 (Plasmodium falciparum (isolate 3D7)) (UniProt Q8IBS5)", "outcome": "inactive"}
{"Compound": "COc1ccc(Br)cc1/C=C/C(=O)Nc1ccc2c(c1)CCCN(C)C2", "Assay System": "Calcium-dependent protein kinase 4 (Plasmodium falciparum (isolate 3D7)) (UniProt Q8IBS5)", "outcome": "inactive"}
{"Compound": "CNCc1cccc(-c2ccc3ccnc(N)c3c2)c1", "Assay System": "Calcium-dependent protein kinase 4 (Plasmodium falciparum (isolate 3D7)) (UniProt Q8IBS5)", "outcome": "inactive"}
{"Compound": "COc1cccc(Nc2nc(NCCO)c3ccccc3n2)c1", "Assay System": "Calcium-dependent protein kinase 4 (Plasmodium falciparum (isolate 3D7)) (UniProt Q8IBS5)", "outcome": "inactive"}
{"Compound": "O=C(Nc1cccc(-c2nn3ncccc3c2-c2ccnc(Nc3cccnc3)n2)c1)c1c(F)cccc1F", "Assay System": "Calcium-dependent protein kinase 4 (Plasmodium falciparum (isolate 3D7)) (UniProt Q8IBS5)", "outcome": "inactive"}
{"Compound": "CCCc1ccc(N2C(N)=NC(N)=NC2(C)C)cc1", "Assay System": "Calcium-dependent protein kinase 4 (Plasmodium falciparum (isolate 3D7)) (UniProt Q8IBS5)", "outcome": "inactive"}

Reported outcome ( COCCN1CCN(Cc2ccc(-c3ccc(-c4nc5c(C)cccc5[nH]4)s3)cc2)CC1 ) = inactive

Reported outcome ( Cc1cccc(CN2CCCN(Cc3ccc(C(=O)Nc4ccc(C)c(F)c4)cc3)CC2)c1 ) = inactive

* * *

Biological target: Protein kinase 7 (PK7), Plasmodium falciparum 3D7 (PF3D7_0213400) (UniProt Q7YTF7)
Test: inhibition of Plasmodium PK7 catalytic activity – biochemical, TCAMS antimalarial set, Kinase-Glo luminescence (AID 1159587)
Conditions: recombinant PfPK7, Kinase-Glo ATP depletion luminescence
Activity calls are given as the source filed them. How the calls were made is not given here.
Assay Metric: outcome

Previously resolved entries follow.
{"Compound": "Fc1ccc2nc(-c3cccc(-c4ccc(CN5CCC(CCN6CCCCC6)CC5)cc4)c3)[nH]c2c1", "outcome": "inactive"}
{"Compound": "CC(CCc1ccc(OCc2ccccc2)cc1)NCC(O)c1ccccc1 (stereo not given)", "outcome": "inactive"}
{"Compound": "CCOc1c(C)cc(C(F)(F)F)cc1CNCCCNc1cc(=O)c2ccccc2[nH]1", "outcome": "inactive"}
{"Compound": "CC(C)C[C@@H](/C=N/N1CC(=O)NC1=O)NC(=O)[C@H](CC(C)C)NC(=O)c1ccc(OCCN2CCOCC2)cc1", "outcome": "inactive"}

Proceeding to the next compound to report its outcome.
Reported outcome ( CC(C)CC(C)NC(=O)C1Cc2c([nH]c3ccc(F)cc23)C2(CCN(Cc3ccccc3)CC2)N1 (stereo not given) ) = inactive
